Cited source: patent US20260209318A1

Target: BQ.1.1 spike protein (SARS-CoV-2 variant BQ.1.1, UniProt P0DTC2 14-1273)
Assay: cell-based or functional assay
reported.metric: IC50 (pVNT)

binder	result
Ab6 (K23) (antibody, V domains shown) VH: EVQLVESGGGLVQPGGSLRLSCSASGFTFNNYVMHWVRQAPGKGLEYVSAINSNGGSTYYAGSVKGRFTISRDNSNNTLYLQMSSLRAEDTAVYYCIKDAGYYSSLGVDSWGQGTLVTVSS VL: EIVLTQSPATLSLSPGERATLSCRASQSVGSYLAWFQQKPGQAPRLLIYDASYRATGIPARFSGSGSGTDFTLTISSLEPEDVGIYYCQQRSNWPQTFGGGTKVDIK	≤ 550 ng/ml
Ab13 (D10) (antibody, V domains shown) VH: EVQLVESGGGLVQPGRSLRLSCAASGFTFDEYAMHWVRQAPGKGLEWVSGISFNSGSVGYAGAAKGRFTISRDNAKKSLYLEMNSLRDEDTAFYYCAKDRGEHWLVRLFDSWGQGTLVTVSS VL: DIQMTQSPSTLSASVGDRVTITCRPSQSIDRWLAWYQQKPGKAPTLLISAASSLETGVPSRFSGSGSGTEFTLTISSLQPDDFATYYCQQYNGYSMFGPGTKVEIK	≤ 550 ng/ml
Ab5 (10x-L8N-c25) (antibody, V domains shown) VH: DFQLVESGGGLVRPGGSLRLSCVASEITVSRNYMSWIRQAPGKGLEWVSIIYPGGTTYYADSVKGRFTISRDNSKNTMYLQLNSLRPEDTAIYYCVRPIVRGGGGMDVWGQGTTVTVSS VL: DIQMTQSPSSLSASVGDRVTITCQASQDINKYLNWYQQKPGKAPKLLIYDATNLEPGVPSRFSGSGSGTDFVFTITSLQPEDIATYYCQYYDDVPYTFGQGTQLEIK	≤ 300 ng/ml
